System: Rattus norvegicus
test summary: Increase in liver weight in Wistar rat at 149 umol/kg/day administered through diet for 10 days
Format: ADME, organism-based
run parameters: in vivo, po, 240 h
result type: Activity (%)

smiles structure | result type | reported
CCCCCCCCCCCCCCOc1ccc(C(=O)O)cc1 | Activity | 7
